- target-entity: UniProtKB Q12809
- Sequence (Q12809 whole entry): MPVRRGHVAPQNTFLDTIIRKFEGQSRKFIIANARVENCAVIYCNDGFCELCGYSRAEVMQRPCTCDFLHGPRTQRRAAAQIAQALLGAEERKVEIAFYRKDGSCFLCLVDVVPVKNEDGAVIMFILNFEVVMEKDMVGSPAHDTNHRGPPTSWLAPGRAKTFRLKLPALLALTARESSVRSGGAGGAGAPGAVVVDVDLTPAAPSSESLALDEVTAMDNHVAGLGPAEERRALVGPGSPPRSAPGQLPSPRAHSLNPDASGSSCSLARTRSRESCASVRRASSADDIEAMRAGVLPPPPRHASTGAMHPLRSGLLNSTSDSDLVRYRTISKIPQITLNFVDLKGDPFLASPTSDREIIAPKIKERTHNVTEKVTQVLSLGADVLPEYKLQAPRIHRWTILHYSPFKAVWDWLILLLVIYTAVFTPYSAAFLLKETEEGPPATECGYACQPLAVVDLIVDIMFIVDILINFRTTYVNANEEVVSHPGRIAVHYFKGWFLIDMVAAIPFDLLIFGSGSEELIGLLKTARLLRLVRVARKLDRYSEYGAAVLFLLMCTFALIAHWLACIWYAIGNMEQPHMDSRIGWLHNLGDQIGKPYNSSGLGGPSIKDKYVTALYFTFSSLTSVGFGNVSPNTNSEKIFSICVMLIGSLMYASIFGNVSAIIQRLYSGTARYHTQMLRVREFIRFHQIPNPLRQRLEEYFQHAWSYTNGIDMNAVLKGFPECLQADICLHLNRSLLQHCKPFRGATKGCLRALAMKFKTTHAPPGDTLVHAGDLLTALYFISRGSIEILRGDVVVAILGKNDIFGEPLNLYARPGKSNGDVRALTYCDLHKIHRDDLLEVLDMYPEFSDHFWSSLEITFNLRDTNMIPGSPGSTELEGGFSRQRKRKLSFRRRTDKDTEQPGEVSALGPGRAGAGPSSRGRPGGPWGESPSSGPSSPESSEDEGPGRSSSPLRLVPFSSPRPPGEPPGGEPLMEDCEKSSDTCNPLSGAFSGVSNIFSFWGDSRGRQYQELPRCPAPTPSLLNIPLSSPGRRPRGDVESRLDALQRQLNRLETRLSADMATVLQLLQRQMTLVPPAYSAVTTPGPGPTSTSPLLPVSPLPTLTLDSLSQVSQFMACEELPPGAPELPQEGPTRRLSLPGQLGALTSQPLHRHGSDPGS
- assay-procedure: cell-based
- condition-info: (-LOG10(IC50), µM)
Where a name gives a salt, the structure may show the parent alone.
Define the label as 1 (yes) when IC50 is strictly less than 6 µM and as 0 (no) in all remaining cases.

{"molecule": "CN1[C@@H]2CC[C@H]1C[C@@H](NC(=O)n1c(=O)[nH]c3ccccc31)C2 [Itasetron]", "group": "0 (no)"}
{"molecule": "CCN(CCC#N)c1ccc(N=Nc2c(Cl)cc([N+](=O)[O-])cc2Cl)cc1 [C.I. Disperse Orange 37]", "group": "0 (no)"}
{"molecule": "O=C(c1ccc(F)cc1)C1CCN(CCn2c(=O)[nH]c3ccccc3c2=O)CC1 [Ketanserin]", "group": "1 (yes)"}
{"molecule": "CCCCc1oc2ccc(NS(C)(=O)=O)cc2c1C(=O)c1ccc(OCCCN(CCCC)CCCC)cc1 [Dronedarone]", "group": "1 (yes)"}
{"molecule": "C[C@@H]1CC[C@@]2(OC1)O[C@H]1[C@@H](O)[C@H]3[C@@H]4CC[C@H]5C[C@@H](O[C@@H]6O[C@H](CO)[C@H](O[C@@H]7O[C@H](CO)[C@@H](O)[C@H](O[C@@H]8OC[C@@H](O)[C@H](O)[C@H]8O)[C@H]7O[C@@H]7O[C@H](CO)[C@@H](O)[C@H](O[C@@H]8O[C@H](CO)[C@@H](O)[C@H](O)[C@H]8O)[C@H]7O)[C@H](O)[C@H]6O)[C@H](O)C[C@]5(C)[C@H]4CC[C@]3(C)[C@H]1[C@@H]2C [Digitonin]", "group": "0 (no)"}
{"molecule": "CC[N+](CC)(CC)CCOC(=O)C(C1CCCC1)C1CCCC1 [Diponium bromide]", "group": "0 (no)"}
{"molecule": "N#CSCSC#N [Methylene bis(thiocyanate)]", "group": "0 (no)"}
{"molecule": "O=C(CCCN1CCC(n2c(O)nc3ccccc32)CC1)c1ccc(F)cc1 [Benperidol]", "group": "1 (yes)"}
{"molecule": "Cc1ccc(O)c(C(=O)c2ccccc2)c1 [2-Hydroxy-5-methylbenzophenone]", "group": "0 (no)"}
{"molecule": "CCOc1ccccc1OCCN[C@H](C)Cc1ccc(OC)c(S(N)(=O)=O)c1 [Tamsulosin hydrochloride]", "group": "0 (no)"}
{"molecule": "C#CCOS(=O)OC1CCCCC1Oc1ccc(C(C)(C)C)cc1 (stereo not drawn) [Propargite]", "group": "0 (no)"}
{"molecule": "CCOC(=O)COc1ccc2c(c1)CC(NCC(O)c1cccc(Cl)c1)CC2 (stereo not drawn) [SR58611]", "group": "1 (yes)"}
{"molecule": "COc1ccc2cc1Oc1ccc(cc1)C[C@H]1c3c(cc4c(c3Oc3cc5c(cc3OC)CCN(C)[C@@H]5C2)OCO4)CCN1C [Cepharanthine]", "group": "0 (no)"}
{"molecule": "CN1C[C@H](C(=O)N[C@]2(C)O[C@@]3(O)[C@@H]4CCCN4C(=O)[C@H](Cc4ccccc4)N3C2=O)C[C@@H]2c3cccc4[nH]cc(c34)C[C@H]21 [Dihydroergotamine]", "group": "0 (no)"}
{"molecule": "CCCCOCCOC(=O)c1ccccc1C(=O)OCCOCCCC [Bis(2-butoxyethyl) phthalate]", "group": "0 (no)"}
{"molecule": "O=C1NC2CCCCN2C12CCN(CCCN1c3ccccc3CCc3ccc(Cl)cc31)CC2 (stereo not drawn) [Mosapramine]", "group": "1 (yes)"}
{"molecule": "CC(CCc1ccccc1)NC(C)C(O)c1ccc(O)cc1 (stereo not drawn) [Nylidrin]", "group": "1 (yes)"}
{"molecule": "CC(COc1ccc(Oc2ccccc2)cc1)Oc1ccccn1 (stereo not drawn) [Pyriproxyfen]", "group": "0 (no)"}
{"molecule": "CN1CCN(CCCN2c3ccccc3Sc3ccc(S(=O)(=O)N(C)C)cc32)CC1 [Thioproperazine dimethanesulfonate]", "group": "1 (yes)"}
{"molecule": "OC(c1ccc(Cl)cc1)(c1ccc(Cl)cc1)c1cccnc1 [Parinol]", "group": "0 (no)"}
{"molecule": "CC(C)CC(C)(c1ccc(O)cc1)c1ccc(O)cc1 [4,4'-(4-Methylpentane-2,2-diyl)diphenol]", "group": "0 (no)"}
{"molecule": "CN1CCN(C2=Nc3ccccc3Sc3ccc(Cl)cc32)CC1 [Clothiapine]", "group": "0 (no)"}
{"molecule": "O=C1[C@H]2CCCC[C@H]2C(=O)N1CCCCN1CCN(c2nsc3ccccc23)CC1 [Perospirone hydrochloride]", "group": "0 (no)"}
{"molecule": "CCCCC(CC)COCCCN (stereo not drawn) [3-((2-Ethylhexyl)oxy)propylamine]", "group": "0 (no)"}
{"molecule": "CN(C)c1ccc(C(=C2C=CC(=[N+](C)C)C=C2)c2ccc(N(C)C)cc2)cc1 [Gentian Violet]", "group": "1 (yes)"}
{"molecule": "CCCCCCCCCCCC[N+](C)(C)CCOc1ccccc1 [Domiphen bromide]", "group": "1 (yes)"}
{"molecule": "CCCCCCOC(=O)c1ccccc1O [Hexyl salicylate]", "group": "0 (no)"}
{"molecule": "Cc1cc(Cc2cc(C)cc(C(C)(C)C)c2O)c(O)c(C(C)(C)C)c1", "group": "0 (no)"}
{"molecule": "CSc1ccc2c(c1)C(N1CCN(C)CC1)Cc1ccccc1S2 (stereo not drawn) [Metitepine]", "group": "1 (yes)"}
{"molecule": "ClC1=C(Cl)[C@]2(Cl)[C@@H]3[C@@H]4C[C@@H]([C@H]5O[C@@H]45)[C@@H]3[C@@]1(Cl)C2(Cl)Cl [Dieldrin]", "group": "0 (no)"}
